Attribution: ChEMBL document CHEMBL1201862

System: SF-295
Experiment: NCI tumour cell line growth inhibition, 48 h
Active and inactive are the calls of the source. Rule as the data show it: active = GI50 up to about 1.1 µM and inactive = higher.
Outcome field: choose from t (active), f (inactive)

Exam item: Any idea what this test logged for Nc1nc(Cl)cc(NCC2(CO)CC(c3ccccc3)C2)n1 (stereo not given) ?
Marked response: f

Exam item: Any idea what this test logged for `CC(=O)c1cc2sc3ccccc3c2[nH]1` ?
Marked response: f

Exam item: Any idea what this test logged for CC(C(=O)O)c1ccc(-c2ccccc2)c(F)c1 (stereo not given) ?
Marked response: f

Exam item: Any idea what this test logged for `S=C(N/N=C/c1ccccn1)N1CCCCCC1` ?
Marked response: t

Exam item: Any idea what this test logged for O=C1/C(=C/c2ccc(Cl)cc2)Oc2cc(O)ccc21 [6-HYDROXY-4'-CHLORO AURONE] ?
Marked response: f

* * *

# key: entry, value: GI50
Tested on: NCI-H522
Test: NCI tumour cell line growth inhibition, 48 h
Calls of active or inactive are those of the source. No stated cut-off is given here; in the data, active = GI50 up to about 1.1 µM and inactive = higher.

For orientation, consider the following solved cases.
>>> result("NNC(=S)NCCNC(=S)NN")
"> 100 µM (inactive)"
>>> result("Fc1cccc(C2ON=C(c3ccccc3)N2C23CC4CC(CC(C4)C2)C3)c1 (centres undefined)")
"> 10 µM (inactive)"
>>> result("COc1cc(/C=C/C(=O)O)ccc1C(=O)OCc1ccccc1")
"> 100 µM (inactive)"
>>> result("Cn1c2ccccc2c2ccc3c(c21)C(=O)C(c1ccccc1)=CC3=O")
"19.2 µM (inactive)"

Exam item: Provide measured GI50 value, entry: O=C(O)c1cc2c(cc1CC(Cc1ccc3c(c1)CCC3)C(=O)O)CCC2 (centres undefined)
Marked response: > 100 µM (inactive)

Exam item: Provide measured GI50 value, entry: `O=C(NCc1ccc(Cl)c(Cl)c1)c1nc2ccccc2nc1NCc1ccc(Cl)c(Cl)c1`
Marked response: > 100 µM (inactive)

Exam item: Provide measured GI50 value, entry: CC(C)=CC(O)C(C(O)CCC1(C)OCCO1)S(=O)(=O)c1ccccc1 (centres undefined)
Marked response: > 100 µM (inactive)

Exam item: Provide measured GI50 value, entry: `c1ccc(-c2c(-c3[nH]c4ccccc4c3-c3ccccc3)[nH]c3ccccc23)cc1`
Marked response: 3.18 µM (inactive)

* * *

Tested on: OVCAR-3
Assay: NCI tumour cell line growth inhibition, 48 h
The source made the active and inactive calls. Cut-off read from the data, not from the text of the source: active = GI50 up to about 1.1 µM and inactive = higher.
# key: entry, value: GI50

For orientation, consider the following solved cases.
>>> result("COc1ccc(CC2(O)C3CC4CCC2C4C3)cc1 (stereo unspecified)")
"> 100 µM (inactive)"
>>> result("C=C1C(=O)OC2C1CC[C@H](C)C1(O)C(O)CC(=O)[C@@]21C (stereo partly specified)")
"21.2 µM (inactive)"
>>> result("Cc1nc(N)nc2ccccc12")
"> 100 µM (inactive)"
>>> result("CC1(C)CC(O)CC(C)(C)N1O [TEMPOL HYDROXYLAMINE]")
"68.1 µM (inactive)"
>>> result("Cc1ccc(S(=O)(=O)OCC(=O)O)cc1")
"> 100 µM (inactive)"

Now take the following compound into account.
Exam item: Provide measured GI50 value, entry: O=C1NC2(CN3CCC2CC3)C(=O)N1CN(Cc1ccccc1)c1ccccc1 (stereo unspecified)
Marked response: > 100 µM (inactive)

* * *

# key: entry, value: GI50
System: OVCAR-4
Test: NCI tumour cell line growth inhibition, 48 h
The source made the active and inactive calls. Cut-off read from the data, not from the text of the source: active = GI50 up to about 1.1 µM and inactive = higher.

For orientation, consider the following solved cases.
>>> result("CC1(O)CC2C(CC1SCCO)C2(C)C (stereo not given)")
"> 100 µM (inactive)"
>>> result("c1ccc(-c2c(-c3[nH]c4ccccc4c3-c3ccccc3)[nH]c3ccccc23)cc1")
"2.17 µM (inactive)"
>>> result("CCCCNC(=O)OCCN=C1c2ccccc2C(Br)C(Br)c2ccccc21 (stereo not given)")
"23.8 µM (inactive)"

Exam item: Provide measured GI50 value, entry: `CN(N)c1cc(=O)[nH]c(=O)[nH]1`
Marked response: > 100 µM (inactive)

Exam item: Provide measured GI50 value, entry: `CN1C(=O)C(=CN(C)c2ccccc2)C(=O)N(C)C1=O`
Marked response: > 100 µM (inactive)

Exam item: Provide measured GI50 value, entry: `CC(C)(C)c1ccc(O)c(CN(Cc2cc(C(C)(C)C)ccc2O)C2CCCCC2)c1`
Marked response: 16.9 µM (inactive)

Exam item: Provide measured GI50 value, entry: N#CC1C(=O)NC(=O)C(C#N)C1c1ccc(Cl)c(Cl)c1 (stereo not given)
Marked response: 81.8 µM (inactive)

Exam item: Provide measured GI50 value, entry: `Cc1c(NC(=S)N/N=C\C(=N/NC(=S)Nc2c(C)n(C)n(-c3ccccc3)c2=O)c2ccccc2)c(=O)n(-c2ccccc2)n1C`
Marked response: > 100 µM (inactive)

Exam item: Provide measured GI50 value, entry: `CO[C@H]1c2cccc3cccc(c23)[C@@H]1n1[nH]c(=O)n(C(C)(C)C)c1=O`
Marked response: > 100 µM (inactive)

Exam item: Provide measured GI50 value, entry: `CSCC[C@H]1C(=O)N=C(N)N1C(=O)OCc1ccccc1`
Marked response: 46.5 µM (inactive)
